- ASSAY_COMMENT: Intrinsic Clearance in Microsomes (rat)
- Assay type: in vitro ADME
- MEASUREMENT_PARAMETERS: liver microsomes, pH 7.4, 2 μM test compound, read-out: In Vitro Microsomal Intrinsic Clearance, Rat CL int (converted)
- Excerpt: The following reagents and stock solutions are required for determination of microsomal clearance. • 1. […]
Assign CLint scaled at 2 µM to each entry below.

{"CHEMICAL_STRING": "CC(C)(C)OC(=O)N1CCC(C)(C(=O)N2CCc3cc(C(=O)NO)ccc3C2)CC1", "CLint scaled at 2 µM": "46.7 mL/min/kg"}

Answer for every listed entry: what is its CLint scaled at 2 µM? The entries follow.
1. CCN1CCC(C)(C(=O)N2CCc3cc(C(=O)NO)ccc3C2)CC1
2. CC1(C(=O)N2CCc3cc(C(=O)NO)ccc3C2)CCNCC1

A)
1: < 14.2 mL/min/kg; 2: < 14.2 mL/min/kg
